Each item that follows carries a reported % Inhibition Factor Xa (30 µM).
target: Human factor Xa (Homo sapiens, UniProt P00742); construct: Human factor Xa (0.3 nM); purchased Enzyme Research Laboratories, South Bend Ind; assay: Xa Assay; assay type: biochemical; conditions: at 30 µM; cells with % sign, and bare 0
Sequence (P00742 235-488 limits assumed): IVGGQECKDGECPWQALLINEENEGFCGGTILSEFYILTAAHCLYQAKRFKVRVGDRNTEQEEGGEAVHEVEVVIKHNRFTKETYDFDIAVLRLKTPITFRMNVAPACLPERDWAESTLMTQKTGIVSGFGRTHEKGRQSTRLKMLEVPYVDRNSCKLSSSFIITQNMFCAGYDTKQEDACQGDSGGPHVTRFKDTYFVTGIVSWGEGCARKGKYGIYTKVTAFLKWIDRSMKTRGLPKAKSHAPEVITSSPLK
Sequence (P00742 41-179 limits assumed): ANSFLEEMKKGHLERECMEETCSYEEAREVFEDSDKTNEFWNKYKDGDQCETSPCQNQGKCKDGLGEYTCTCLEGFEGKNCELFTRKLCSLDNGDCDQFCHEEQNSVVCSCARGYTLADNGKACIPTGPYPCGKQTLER

Observe how each entry below is paired with its result.
{"Compound": "CC(C(=O)NCc1ccc(C(=N)N)cc1)n1c(-c2ccccc2)c(Cl)nc(NCCc2ccccc2)c1=O (stereo not shown) [Example 1517-15]", "% Inhibition Factor Xa (30 µM)": "0%"}
{"Compound": "Nc1cccc(-c2c(Cl)nc(NC3CCC3)c(=O)n2CC(=O)N2CCC3(CC2)OCCO3)c1", "% Inhibition Factor Xa (30 µM)": "9%"}
{"Compound": "CC(C(=O)NCc1ccc(C(=N)N)cc1)n1c(-c2ccccc2)c(Cl)nc(NC2CCC2)c1=O (stereo not shown) [Example 1517-09]", "% Inhibition Factor Xa (30 µM)": "0%"}
{"Compound": "CC(C(=O)NCc1ccc(C(=N)N)cc1)n1c(-c2ccccc2)c(Cl)nc(NCCc2ccccc2)c1=O (stereo not shown) [Example 1517-17]", "% Inhibition Factor Xa (30 µM)": "0%"}
{"Compound": "N=C(N)c1ccc(CNC(=O)Cn2c(-c3cccc(N)c3)c(Cl)nc(NCCCCCC(N)=O)c2=O)cc1", "% Inhibition Factor Xa (30 µM)": "24%"}

% Inhibition Factor Xa (30 µM) on Human factor Xa (Homo sapiens, UniProt P00742) for CC(C(=O)NCc1ccc(C(=N)N)cc1)n1c(-c2ccccc2)c(Cl)nc(NCc2ccccc2)c1=O (stereo not shown) [Example 1517-03] is 0%

// compound CC(C(=O)NCc1ccc(C(=N)N)cc1)n1c(-c2ccccc2)c(Cl)nc(NC2CCC2)c1=O (stereo not shown) [Example 1517-11] , assay Human factor Xa (Homo sapiens, UniProt P00742), % Inhibition Factor Xa (30 µM) value: 0%

----------
biological target: Trypsin (type 1× from porcine pancreas) (Sus scrofa, UniProt P00761); construct: Trypsin (5 ug/ml; type 1× from porcine pancreas); purchased Sigma, St. Louis Mo; host or cells: porcine pancreas; experiment: Trypsin Assay; type: biochemical; set-up: concentration or dose not given beside the values; conditions: @ 1
Sequence (P00761 9-231): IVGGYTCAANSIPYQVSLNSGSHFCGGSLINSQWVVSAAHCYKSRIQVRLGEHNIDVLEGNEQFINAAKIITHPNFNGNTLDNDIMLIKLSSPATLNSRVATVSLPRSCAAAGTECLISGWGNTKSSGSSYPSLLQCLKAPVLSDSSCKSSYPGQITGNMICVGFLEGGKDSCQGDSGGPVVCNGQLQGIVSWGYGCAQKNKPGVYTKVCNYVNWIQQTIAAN
# % Inhibition Trypsin II @ 1 annotations
Answer format: numeric, % @ 1 implied, no suffix.

Here are 3 molecules together with their reported answers.
{"Molecule": "C[C@H](Nc1nc(Cl)c(-c2ccccc2)n(CC(=O)NCc2ccc(C(=N)N)cc2)c1=O)c1ccccc1 [1507-34]", "% Inhibition Trypsin II @ 1 / % @ 1": 0}
{"Molecule": "N=C(N)c1ccc(CNC(=O)Cn2c(-c3ccccc3)c(Cl)nc(NC(Cc3ccccc3)c3ccccc3)c2=O)cc1 (stereo not shown) [1507-07]", "% Inhibition Trypsin II @ 1 / % @ 1": 7}
{"Molecule": "COc1ccc(CCNc2nc(Cl)c(-c3ccccc3)n(CC(=O)NCc3ccc(C(=N)N)cc3)c2=O)cc1 [1507-11]", "% Inhibition Trypsin II @ 1 / % @ 1": 27}

Kindly note the recorded % Inhibition Trypsin II @ 1 for N=C(N)c1ccc(CNC(=O)Cn2c(-c3ccccc3)c(Cl)nc(NCc3ccc(Br)cc3)c2=O)cc1 [1507-30] , which is 0

----------
target: recombinant soluble tissue factor and recombinant human factor VIIa (TF-VIIa) (Homo sapiens); construct: conversion of coagulation factor VII to VIIa by Xa; purchased American Diagnostica, Greenwich Conn; host or cells: factor VIIa purchased; soluble TF made in house in E. coli; assay: TF-VIIa Assay; format: biochemical; details: inhibitor at 100 νM
Sequence (P08709 213-466 limits assumed): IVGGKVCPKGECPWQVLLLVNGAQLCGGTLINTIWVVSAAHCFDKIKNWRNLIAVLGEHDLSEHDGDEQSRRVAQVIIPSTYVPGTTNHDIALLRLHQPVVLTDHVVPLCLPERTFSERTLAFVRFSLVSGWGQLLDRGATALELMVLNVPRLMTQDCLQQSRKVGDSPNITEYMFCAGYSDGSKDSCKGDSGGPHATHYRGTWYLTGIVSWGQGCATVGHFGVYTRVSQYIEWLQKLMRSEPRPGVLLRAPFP
Sequence (P08709 61-212 limits assumed): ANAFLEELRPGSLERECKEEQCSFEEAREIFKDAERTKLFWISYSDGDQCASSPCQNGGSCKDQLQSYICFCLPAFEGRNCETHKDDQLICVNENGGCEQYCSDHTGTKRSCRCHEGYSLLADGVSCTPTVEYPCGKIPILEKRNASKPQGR
Sequence (P13726 33-251 partner limits assumed): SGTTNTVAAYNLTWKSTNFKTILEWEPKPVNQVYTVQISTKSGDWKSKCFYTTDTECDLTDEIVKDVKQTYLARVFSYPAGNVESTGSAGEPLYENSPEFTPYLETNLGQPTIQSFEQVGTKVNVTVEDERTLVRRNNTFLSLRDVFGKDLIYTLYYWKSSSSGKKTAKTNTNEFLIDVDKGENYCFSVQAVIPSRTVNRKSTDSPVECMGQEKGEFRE
Observed property: % Inhibition TF-VIIa (100 νM) (%)
Please respond with the number in % and leave the unit unwritten.

Please review the entries below; each comes with its answer.
{"Molecule": "O=C(Cn1c(CCc2ccccc2)c(Cl)nc(NCCc2cccc(Cl)c2)c1=O)NCCc1ccncc1 [Example E-0067]", "Observed property": "% Inhibition TF-VIIa (100 νM)", "Measured number": 0}
{"Molecule": "O=C(Cn1c(-c2cccc(Cl)c2)c(Cl)nc(NCCc2cccc(Cl)c2)c1=O)NCCc1ccncc1 [Example E-0079]", "Observed property": "% Inhibition TF-VIIa (100 νM)", "Measured number": 0}
{"Molecule": "COc1ccc(-c2c(Cl)nc(NCCN3CCOCC3)c(=O)n2CC(=O)NCCc2ccncc2)cc1 [Example E-0039]", "Observed property": "% Inhibition TF-VIIa (100 νM)", "Measured number": 0}
{"Molecule": "O=C(Cn1c(-c2ccc(Cl)cc2)c(Cl)nc(NCCc2ccncc2)c1=O)NCCc1ccncc1 [Example E-0030]", "Observed property": "% Inhibition TF-VIIa (100 νM)", "Measured number": 0}
{"Molecule": "O=C(Cn1c(-c2ccc3c(c2)OCO3)c(Cl)nc(NCCc2cccc(Cl)c2)c1=O)NCCc1ccncc1 [Example E-0043]", "Observed property": "% Inhibition TF-VIIa (100 νM)", "Measured number": 0}

Entry under test: O=C(Cn1c(-c2cccc(Cl)c2)c(Cl)nc(NCCc2ccccc2)c1=O)NCCc1cccnc1 [Example E-0077] . Its % Inhibition TF-VIIa (100 νM) was 0

Noted for COc1ccc(-c2c(Cl)nc(NCCc3cccnc3)c(=O)n2CC(=O)NCCc2ccncc2)cc1 [Example E-0037] : its % Inhibition TF-VIIa (100 νM) reads 0
